Value source: PubChem BioAssay (Tox21)

- target of assay: Peroxisome proliferator-activated receptor delta (Homo sapiens) (UniProt Q03181)
- Sequence (Q03181 whole entry, looked up): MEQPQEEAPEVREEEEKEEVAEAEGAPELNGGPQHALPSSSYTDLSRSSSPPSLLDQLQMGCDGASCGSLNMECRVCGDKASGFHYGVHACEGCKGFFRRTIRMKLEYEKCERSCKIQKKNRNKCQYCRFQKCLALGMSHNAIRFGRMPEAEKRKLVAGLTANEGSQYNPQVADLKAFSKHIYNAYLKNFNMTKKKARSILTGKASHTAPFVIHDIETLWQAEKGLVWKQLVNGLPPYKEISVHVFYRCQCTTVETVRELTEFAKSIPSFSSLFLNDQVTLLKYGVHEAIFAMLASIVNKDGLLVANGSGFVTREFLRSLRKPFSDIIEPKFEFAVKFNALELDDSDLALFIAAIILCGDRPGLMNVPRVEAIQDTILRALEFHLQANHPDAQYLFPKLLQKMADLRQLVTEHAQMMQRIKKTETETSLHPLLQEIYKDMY
- procedure text: qHTS assay to identify small molecule agonists of the peroxisome proliferator-activated receptor delta (PPARd) signaling pathway (AID 743212);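 also: HEK293H cells with PPARd UAS beta-lactamase reporter GeneBLAzer system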
- stated conditions: HEK293H PPARd-UAS-bla, beta-lactamase FRET ratio, 17 h; series mostly up to 62.6 µM
Inconclusive results are not listed. The source made the active and inactive calls. Calls follow the shape of the full dose curve.
reported metric: outcome

A selection of reference data follows.
INSERT INTO results (compound, measurement) VALUES
  ('O=C1CN2CCOC2(c2ccccc2Cl)c2cc(Cl)ccc2N1 (centres undefined)', 'inactive'),
  ('CC(C)(C)C(=O)C(Oc1ccc(Cl)cc1)n1cncn1 (centres undefined)', 'inactive'),
  ('CCOC(=O)C(c1c(O)c2ccccc2oc1=O)c1c(O)c2ccccc2oc1=O', 'inactive'),
  ('CCCSP(=S)(OCC)Oc1ccc(Cl)cc1Cl (centres undefined)', 'inactive'),
  ('Cc1ncsc1CCCl', 'inactive');

For each of the compounds below, state outcome.
1. CCOP(=S)(OCC)SCSP(=S)(OCC)OCC
2. CNC(=O)N(C)c1nc2ccccc2s1
3. Cc1nnc2n1-c1sc(CCC(=O)N3CCOCC3)cc1C(c1ccccc1Cl)=NC2

Marked response:
1: inactive; 2: inactive; 3: inactive

For each of the compounds below, state outcome.
1. CC(C=O)Cc1ccc2c(c1)OCO2 (centres undefined)
2. NC(=O)c1cc([N+](=O)[O-])cc([N+](=O)[O-])c1
3. CCCCc1ccc(O)cc1

Marked response:
1. inactive
2. inactive
3. inactive

For each of the compounds below, state outcome.
1. CCC#N
2. CCC(=O)C(CCN(C)C)(c1ccccc1)c1ccccc1
3. [O]=[Cd]
4. CCN(CC)C(C)C(=O)c1ccccc1 (centres undefined)
5. Nc1c(Br)cc([N+](=O)[O-])cc1[N+](=O)[O-]
6. COC(=O)COc1ccc(Cl)cc1Cl
7. O=[N+]([O-])c1ccc2c3c(cccc13)CC2
8. CCC1(c2ccccc2)C(=O)N=C(O)NC1=O (centres undefined)

Marked response:
inactive
inactive
inactive
inactive
inactive
inactive
inactive
inactive
